Numbers sourced from patent US9745295B2.

- Target Or System: recombinant human GST-SYK (Homo sapiens)
- Assay Protocol: Homogeneous Time-Resolved Fluorescence (HTRF) assay for the recombinant human Syk enzyme
- Condition Context: recombinant human GST-SYK 5 pM, ATP 25 μM, read-out: rhSYK IC50
Threshold-based label: IC50 under 20 nM gives fulfilled, IC50 not under 20 nM gives not fulfilled.

Query: Is 20 nM strictly greater than the molecule's reported IC50? molecule: Cc1cc(Nc2cc(C(F)(F)F)ncn2)nc(-c2cnc([C@@]3(O)CC[C@H](C(N)=O)[C@H](C)C3)s2)c1 (relative stereo) [Example 1.19]
Result: fulfilled

Query: Is 20 nM strictly greater than the molecule's reported IC50? molecule: Cc1cc(Nc2nccc(C)n2)cc(-c2cnc([C@@]3(O)CC[C@H](C(=O)O)C(C)(C)C3)s2)n1 (single isomer, unassigned) [Example 4.3]
Result: not fulfilled

Query: Is 20 nM strictly greater than the molecule's reported IC50? molecule: Cc1cc(Nc2nccc(C(F)(F)F)n2)cc(-c2cnc(C(C)(O)c3ccc(C(=O)O)cc3)s2)n1 (single isomer, unassigned) [Example 1.21]
Result: fulfilled

Query: Is 20 nM strictly greater than the molecule's reported IC50? molecule: OC1(c2ncc(-c3cccc(Nc4cnccn4)n3)s2)CCC1 [Example 4.2]
Result: not fulfilled

Query: Is 20 nM strictly greater than the molecule's reported IC50? molecule: Cc1cc(Nc2cc(C)ccn2)cc(-c2cnc(C(C)(O)[C@H]3CC[C@H](C(=O)O)CC3)s2)c1 (single isomer, unassigned) [Example 4.14]
Result: fulfilled

Query: Is 20 nM strictly greater than the molecule's reported IC50? molecule: Cc1cc(Nc2nccc(OC(C)C)n2)cc(-c2cnc(C3(O)CCC(C(=O)O)C(C)(C)C3)s2)n1 (stereo not drawn) [Example 1.16]
Result: fulfilled
